- Assayed System: pre-existing anti-scFv903 antibodies in human serum H81 (human)
- Assay Explanation: competition ADA bridging ELISA, 100 mcg/ml competitor
Experimental Endpoint: % reduction in OD (%)
Provide the reading as a plain figure in %.

# % reduction in OD lookup, item scFv 791 (scFv) scFv: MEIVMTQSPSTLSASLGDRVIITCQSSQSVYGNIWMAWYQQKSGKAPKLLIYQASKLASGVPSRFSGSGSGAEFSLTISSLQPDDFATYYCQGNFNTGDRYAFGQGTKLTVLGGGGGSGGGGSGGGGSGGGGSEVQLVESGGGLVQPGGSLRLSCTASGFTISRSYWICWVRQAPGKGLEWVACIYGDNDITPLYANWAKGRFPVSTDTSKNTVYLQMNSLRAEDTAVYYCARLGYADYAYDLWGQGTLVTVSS
-94.4

Origin of the recorded values: patent US20210214461A1
